Numbers sourced from patent US20260258084A1.

A collection of molecules and their measured Chemical stability (relative purity loss) Buffer pH 1.2
test: Chemical stability assessment of peptides (relative purity loss); assay type: physicochemical; details: 50 mM HCl pH 1.2 + acetonitrile (1:1); 24 hours at 37° C.
Starred links: 1 amine or outer side, 2 acyl side, 3 side chain; linkers in the order of their positions; H or OH if unused. Positions of bridges follow the written chain, without caps; N, C: chain ends. Non-standard residues stand in square brackets, D forms with d. Residues, ends and D or L forms follow the SMILES beside them. *: point of attachment. X3 = CN(CCCCC(=O)N[C@@H](CS[*:2])C(=O)[*:1])[*:3]; Trp(7-Me) = Cc1cccc2c(C[C@H](N)C(=O)O)c[nH]c12; αMeLys(Me2) = CN(C)CCCC[C@](C)(N)C(=O)O; X2 = CN(C)[C@@H](CCCCN[*:1])C(=O)[*:2]; 2Nal = N[C@@H](Cc1ccc2ccccc2c1)C(=O)O; AEF = NCCOc1ccc(C[C@H](N)C(=O)O)cc1; 3Pal = N[C@@H](Cc1cccnc1)C(=O)O; Thp = NC1(C(=O)O)CCOCC1; Me2NCH2CH2 = CN(C)CC*; Ava = NCCCCC(=O)O; Sar = CNCC(=O)O
Use % as the unit, but write only the number.

Recorded Chemical stability (relative purity loss) Buffer pH 1.2, per entry:
molecule	unitDescriptor	observedResult
CC(=O)N[C@H]1CCCCNC(=O)[C@@H]2CSSC[C@H](NC(=O)[C@H](CCC(N)=O)NC(=O)[C@H](Cc3c[nH]c4ccccc34)NC1=O)C(=O)N[C@@H](Cc1ccc(OCCN)cc1)C(=O)N[C@@H](Cc1ccc3ccccc3c1)C(=O)NC1(CCOCC1)C(=O)N[C@H](C(=O)N[C@@H](CC(N)=O)C(=O)N[C@@H](CC(N)=O)C(N)=O)CCC(=O)N(C)CCCCC(=O)N2 [compound 13] (Ac-KWQC[AEF][2Nal][Thp]ENN-NH2; linker 1-4-8 via X3)	%	23.3
CC(=O)NCCCC[C@@H]1NC(=O)[C@H](Cc2c[nH]c3ccccc23)NC(=O)[C@@H](N(C)C)CCCCNC(=O)[C@@H]2CSSC[C@H](NC1=O)C(=O)N[C@@H](Cc1ccc(OCCN(C)C)cc1)C(=O)N[C@@H](Cc1ccc3ccccc3c1)C(=O)N[C@@](C)(CCCCN(C)C)C(=O)N[C@H](C(=O)N[C@@H](CC(N)=O)C(=O)N[C@@H](Cc1cccnc1)C(=O)N(C)CC(N)=O)CCC(=O)NCCCCC(=O)N2 [compound 36] ([Ava]C[X2]WK(Ac)CY(Me2NCH2CH2)[2Nal][αMeLys(Me2)]EN[3Pal][Sar]-NH2; disulfide 2-6; lactam N-10)	%	2.6

Given item COc1ccc(C[C@@H]2NC(=O)[C@@H]3CSSC[C@H](NC(=O)CCC(=O)NCCCC[C@@H](C(=O)N[C@@H](CC(N)=O)C(=O)N[C@@H](CC(N)=O)C(N)=O)NC(=O)C(C)(C)NC(=O)[C@H](Cc4ccc5ccccc5c4)NC2=O)C(=O)N[C@@H](CC(N)=O)C(=O)N[C@@H]([C@@H](C)O)C(=O)N[C@@H](Cc2c[nH]c4ccccc24)C(=O)N[C@@H](CCC(N)=O)C(=O)N3)cc1 [compound 11] , the value recorded as its Chemical stability (relative purity loss) Buffer pH 1.2 is 25.7

Given item CC(=O)N[C@H]1CCCCNC(=O)[C@@H]2CSSC[C@H](NC(=O)[C@H](CCC(N)=O)NC(=O)[C@H](Cc3c[nH]c4ccccc34)NC1=O)C(=O)N[C@@H](Cc1ccc(OCCN)cc1)C(=O)N[C@@H](Cc1ccc3ccccc3c1)C(=O)NC1(CCOCC1)C(=O)N[C@H](C(=O)N[C@@H](C)C(=O)N[C@H](CC(C)C)C(N)=O)CCC(=O)N(C)CCCCC(=O)N2 [compound 34] (Ac-KWQC[AEF][2Nal][Thp]EA[dL]-NH2; linker 1-4-8 via X3) , the value recorded as its Chemical stability (relative purity loss) Buffer pH 1.2 is 7.9

Given item Cc1cccc2c(C[C@@H]3NC(=O)[C@H]([C@@H](C)O)NC(=O)[C@H](CC(N)=O)NC(=O)[C@@H]4CSSC[C@H](NC(=O)[C@H](CC(C)C)NC3=O)C(=O)N[C@@H](Cc3ccc(OCCN(C)C)cc3)C(=O)N[C@@H](Cc3ccc5ccccc5c3)C(=O)NC3(CCOCC3)C(=O)N[C@H](C(=O)N[C@@H](CC(N)=O)C(=O)N[C@@H](Cc3cccnc3)C(=O)N(C)CC(N)=O)CCC(=O)NCCCCC(=O)N4)c[nH]c12 [compound 24] ([Ava]CNT[Trp(7-Me)]LCY(Me2NCH2CH2)[2Nal][Thp]EN[3Pal][Sar]-NH2; disulfide 2-7; lactam N-11) , the value recorded as its Chemical stability (relative purity loss) Buffer pH 1.2 is 7.2
